- system.tested: BTK (Bruton tyrosine kinase) (Homo sapiens, UniProt Q06187)
- Construct: GST or His (the text leaves open which); purchased Reaction Biology Europe GmbH Lot 012,11; host or cells: Sf9 insect cells or E. coli (not resolved)
- Sequence (Q06187 whole entry): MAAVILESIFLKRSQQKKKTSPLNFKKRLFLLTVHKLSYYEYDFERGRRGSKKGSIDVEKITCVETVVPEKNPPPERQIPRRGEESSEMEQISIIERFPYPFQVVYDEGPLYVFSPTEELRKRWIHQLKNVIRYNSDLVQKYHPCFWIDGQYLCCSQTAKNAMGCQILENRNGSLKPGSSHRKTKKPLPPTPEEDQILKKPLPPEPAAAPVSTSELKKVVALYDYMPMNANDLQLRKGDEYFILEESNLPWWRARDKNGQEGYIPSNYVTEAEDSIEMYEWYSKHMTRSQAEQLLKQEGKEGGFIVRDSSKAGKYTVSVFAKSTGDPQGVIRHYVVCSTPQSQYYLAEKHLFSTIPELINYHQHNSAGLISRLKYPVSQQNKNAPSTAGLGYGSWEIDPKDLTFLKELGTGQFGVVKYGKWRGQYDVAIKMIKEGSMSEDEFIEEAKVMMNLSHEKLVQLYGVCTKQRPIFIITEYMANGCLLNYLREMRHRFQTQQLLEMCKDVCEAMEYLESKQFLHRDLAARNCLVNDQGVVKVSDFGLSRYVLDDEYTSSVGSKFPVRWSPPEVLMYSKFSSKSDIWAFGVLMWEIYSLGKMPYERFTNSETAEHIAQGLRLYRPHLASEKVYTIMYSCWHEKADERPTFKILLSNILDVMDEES
- assay.remarks: BTK screening assay (33PanQinase Activity Assay, radiometric)
- Format: biochemical
- test.settings: Inhibition of BTK, radiometric 33PanQinase Activity Assay, 3 μM ATP, 10 concentrations in singlicate, top 10 μM; read-out: 33PanQinase ® Radiometric IC50
pIC50: −log10 of the molar value.
value.type: pIC50

Before answering, review these 3 worked examples.
Look up pIC50 of Cc1cc(-c2ncnc3[nH]c(C(=O)NCCCCN4[C@@H](c5ncccc5C)CCC[C@H]4c4ncccc4C)cc23)ccc1CNC(=O)c1ccc(F)cc1 and report it.
7.00 to 9.00

Quickly give me recorded pIC50 for Cc1cc(-c2ncnc3[nH]c(C(=O)NCCN4[C@@H](c5ncccc5C)CCC[C@H]4c4ncccc4C)cc23)ccc1CNC(=O)c1ccc(F)cc1
6.00 to 7.00

Give a short answer stating reported pIC50 for Cc1cc(-c2ncnc3[nH]c(S(=O)(=O)NCCCN4[C@@H](c5ncccc5C)CCC[C@H]4c4ncccc4C)cc23)ccc1CNC(=O)c1ccc(C(C)(C)C)cc1 .
6.00 to 7.00

Others:
Recall and state the measured pIC50 for Cc1cccnc1[C@H]1CCC[C@@H](c2ncccc2C)N1CCCNC1CN(C(=O)c2cc3c(-c4cccc(NC(=O)c5ccccc5)c4C)ncnc3[nH]2)C1 .
< 5.60
